System: PC3
MEASUREMENT NOTES: Cytostatic cell culture assay (GI50), SRB
Format: cell-based
ASSAY CONTEXT: Homo sapiens, PC-3, 120 h; 5 days incubation
MEASUREMENT KIND: GI50 (nM)

{"COMPOUND": "CCCOc1nc(N)nc2c1ncn2CCOCP(=O)(N[C@@H](Cc1ccccc1)C(=O)OCC(C)C)N[C@@H](Cc1ccccc1)C(=O)OCC(C)C", "ASSAYED TARGET": "PC3", "READOUT NUMBER": 10}
{"COMPOUND": "CCCCOC(=O)[C@H](C)NP(=O)(COCCn1cnc2c(OC3CC3)nc(N)nc21)Oc1ccccc1 (stereo partly shown)", "ASSAYED TARGET": "PC3", "READOUT NUMBER": 60}
{"COMPOUND": "CCOC(=O)[C@H](C)NP(=O)(COCCn1cnc2c(OCC)nc(N)nc21)N[C@@H](C)C(=O)OCC", "ASSAYED TARGET": "PC3", "READOUT NUMBER": 146}
{"COMPOUND": "CCCCOC(=O)[C@H](C)NP(=O)(COCCn1cnc2c(OCCC)nc(N)nc21)N[C@@H](C)C(=O)OCCCC", "ASSAYED TARGET": "PC3", "READOUT NUMBER": 11}

[A] COc1nc(N)nc2c1ncn2CCOCP(=O)(OCOC(=O)OC(C)C)OCOC(=O)OC(C)C
[B] CCCCCOc1nc(N)nc2c1ncn2CCOCP(=O)(N[C@@H](C)C(=O)OCC)N[C@@H](C)C(=O)OCC
[C] CCCOc1nc(N)nc2c1ncn2CCOCP(=O)(N1CCC[C@H]1C(=O)OC)N1CCC[C@H]1C(=O)OC
Could you please sort these 3 entries by GI50 from high to low? Your task in answering is to list the labels in the requested order.
C, A, B
(C: 121 nM, A: 52 nM, B: 10 nM)
